system: DLD-1 deficient (did-1 RNAi) C. elegans; assay: Animal size (length) of DLD-1 deficient (dld-1 RNAi) worms, COPAS Biosorter; format: in vivo; conditions: dld-1 RNAi worms; conc.: Nicotinic Acid 1 mM; Riboflavin 10 uM; Thiamine 25 mM; L-Carnitine 100 uM; Folinic Acid 10 uM; Glucose 10 uM; DCA 25 mM; Cysteamine 100 um; NAC 2.5 Mm; AICAR 500 uM; Hydralazine 200 uM; Lithium Chloride 10 mM; Cyclohexamide 2 uM; Arginine 10 mM; Taurine 800 uM; Resveratrol 50 uM; Rapamycin 2.5 nM; Probucol 5 uM; Lipoic Acid 10 uM; Vitamin E 250 uM
experimental endpoint: Size

Worked set:
molecule=O=C(O)c1cccnc1 reported_value="No Effect"
molecule="O=C(O)C(Cl)Cl [DCA, dichloroacetate]" reported_value="No Effect"
molecule=NCCS reported_value="No Effect"
molecule=CO[C@H]1C[C@@H]2CC[C@@H](C)[C@@](O)(O2)C(=O)C(=O)N2CCCC[C@H]2C(=O)O[C@H]([C@H](C)C[C@@H]2CC[C@@H](O)[C@H](OC)C2)CC(=O)[C@H](C)/C=C(\C)[C@@H](O)[C@@H](OC)C(=O)[C@H](C)C[C@H](C)/C=C/C=C/C=C/1C reported_value="No Effect"
molecule=Cc1cc2nc3c(=O)[nH]c(=O)nc-3n(C[C@H](O)[C@H](O)[C@H](O)CO)c2cc1C reported_value=Increase
molecule=Oc1ccc(C=Cc2cc(O)cc(O)c2)cc1 reported_value=Increase
molecule=CC(=O)N[C@@H](CS)C(=O)O reported_value="No Effect"
molecule="C[C@@H]1C[C@@H]([C@H](O)CC2CC(=O)NC(=O)C2)C(=O)[C@@H](C)C1 [Cyclohexamide]" reported_value="No Effect"
molecule="Nc1nc(=O)c2c([nH]1)NCC(CNc1ccc(C(=O)N[C@@H](CCC(=O)O)C(=O)O)cc1)N2C=O (mixture of isomers)" reported_value="No Effect"
molecule=NCCS(=O)(=O)O reported_value=Increase

Input CC(C)(Sc1cc(C(C)(C)C)c(O)c(C(C)(C)C)c1)Sc1cc(C(C)(C)C)c(O)c(C(C)(C)C)c1 . Output Size: No Effect

// Size value for [Cl-].[Li+] [Lithium Chloride] : No Effect

The reported Size of the molecule C[N+](C)(C)C[C@H](O)CC(=O)[O-] was No Effect

Size recorded for this molecule, O=C(O)CCCC[C@@H]1CCSS1 (racemic) , is No Effect

Sample N=C(N)NCCC[C@H](N)C(=O)O ; Size observed: No Effect

# Size of Cc1ncc(C[n+]2csc(CCO)c2C)c(N)n1 = Increase

// field: Size; key: NC(=O)c1ncn([C@@H]2O[C@H](CO)[C@@H](O)[C@H]2O)c1N ; value = No Effect
